Source of measurements: PubChem BioAssay AID1845198

System: 425362-245-T-J1 tumor spheroids, viability % test/control;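 note: spheroids exposed to agents for 7 days; 100% = DMSO vehicle control viability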
Test: Anticancer human tumor 425362-245-T-J1 patient-derived melanoma cell line growth inhibition
Details: second compound 0.00949 µM; first compound 0.0316 µM; stronger effect = lower value; spheroids with HUVEC and MSC

compound | units | viability, T/C
CC(C)n1c(=O)n(C)c2cnc3cc(F)c(-c4ccc(OCCCN5CCCCC5)nc4)cc3c21 + CC[C@@]1(O)C(=O)OCc2c1cc1n(c2=O)Cc2cc3c(CN(C)C)c(O)ccc3nc2-1 | % | 6.58
COc1cc(C)[nH]c(=O)c1CN1CCc2c(Cl)cc(C(OC)C3COC3)c(Cl)c2C1=O (stereo not drawn) + CC[C@@]1(O)C(=O)OCc2c1cc1n(c2=O)Cc2cc3c(CN(C)C)c(O)ccc3nc2-1 | % | 91
Cc1cc(C)c(CNC(=O)c2cc(-c3ccc(CN4CCOCC4)cc3)cc3c2cnn3C2CCCC2)c(=O)[nH]1 + CC[C@@]1(O)C(=O)OCc2c1cc1n(c2=O)Cc2cc3c(CN(C)C)c(O)ccc3nc2-1 | % | 81.9
